- systemName: γ-secretase (Homo sapiens)
- testDescription: Aβ secretion by C99 cells (HEK293 stably expressing APP-C99), γ-secretase inhibitory effect, Aβ ELISA of culture supernatant
- Assay type: cell-based
- runConditions: HEK293, 24 h, Example 9 (low concentrations); exposure 0.03 μmol/L; read-out: Aβ (1-40) secretion rate of C99 cells
For each of the molecules below, state its activity at 0.03 µM.
# value in %; strip the unit string

Reported activity at 0.03 µM, molecule CSCCC(NC(=O)C(NC(=O)C(CC(C)C)CC(O)C(NC(=O)OC(C)(C)C)C(C)O)C(C)C)C(=O)NCc1ccccc1 (stereo not shown) : ____ 100

Reported activity at 0.03 µM, molecule CSCCC(NC(=O)C(NC(=O)C(CC(C)C)CC(O)C(NC(=O)OC(C)(C)C)C(C)O)C(C)C)C(=O)NC(C)c1ccccc1 (stereo not shown) : ____ 53

Reported activity at 0.03 µM, molecule CSCCC(NC(=O)C(NC(=O)C(CC(C)C)CC(O)C(NC(=O)OC(C)(C)C)C(C)O)C(C)C)C(=O)NCc1ccc(F)cc1 (stereo not shown) : ____ 94

Reported activity at 0.03 µM, molecule CCCCNC(=O)C(CCSC)NC(=O)C(NC(=O)C(CC(C)C)CC(O)C(NC(=O)OC(C)(C)C)C(C)O)C(C)C (stereo not shown) : ____ 124
